B1: POU domain, class 6, transcription factor 2, residues 609 to 663; numbered along this chain, P78424 (parent)
chain: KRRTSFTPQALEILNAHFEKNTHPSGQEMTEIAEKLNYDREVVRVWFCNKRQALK

Variants of: B1
PROCEDURE SUMMARY: abundance fitness (aPCA) (normalised: wild type 0, dead -1); higher = more abundant; growth selection in yeast, the domain comes from the species named
EXPERIMENTAL PARAMETERS: Homo sapiens
OBSERVED PROPERTY: abundance fitness
Answer with the value's number alone.

Below, 3 variants whose answers are already recorded.
N21W    -0.67
N15Q    -0.281
R40Y    -0.087

Give its abundance fitness value. Item: `Q52A`
-0.006

Give its abundance fitness value. Item: `E28R`
-0.175

Give its abundance fitness value. Item: `I32N`
-0.838

Give its abundance fitness value. Item: `K50C`
-0.662

Give its abundance fitness value. Item: `I13H`
-0.172
